# Test system: BCL1 murine B cell leukemia
# measurement.protocol: Cytotoxicity assay (MTS, CellTiter 96) in freshly extracted BCL1 cells
# experimental.conditions: Mus musculus, BCL1, read-out: IC50 of MJ
readout.type: pIC50
Scale: negative log10 of molar concentration, which is what pIC50 denotes.

Report pIC50 from BCL1 murine B cell leukemia testing of CC/C=C\CC1C(=O)CCC1CC(=O)OC (stereo not shown)
3.25
